# conditions.used: normal mice, oral gavage, 3mg/kg; Liver; 18h
metric: Drug concentration, time course

# count of solved cases: 5
>>> print(df.to_string())
                                   compound                           metric  value
0  CC#CCn1c(N2CCC[C@@H](N)C2)nc2c1c(=O)n(Cc1nc(C)c3ccccc3n1)c(=O)n2C [Linagliptin, linagliptin]  Drug concentration, time course      0
1  OC[C@H]1O[C@@H](c2ccc(F)c(Cc3cc4ccccc4s3)c2)[C@H](O)[C@@H](O)[C@@H]1O [Ipragliflozin, ipragliflozin]  Drug concentration, time course      0
2  Cn1c(=O)cc(N2CCC[C@@H](N)C2)n(Cc2ccccc2C#N)c1=O [Alogliptin, alogliptin]  Drug concentration, time course      0
3  COc1ccc2c(c1)c(CC(=O)O)c(C)n2C(=O)c1ccc(Cl)cc1 [Indomethacin, indomethacin]  Drug concentration, time course      0
4  OC[C@H]1O[C@@H](c2ccc(Cl)c(Cc3ccc(O[C@H]4CCOC4)cc3)c2)[C@H](O)[C@@H](O)[C@@H]1O [Jardiance]  Drug concentration, time course      0

a = N#C[C@@H]1CCCN1C(=O)CNC12CC3CC(CC(O)(C3)C1)C2 [Vildagliptin, vildagliptin]
b = CC1=C(C(=O)O)N2C(=O)[C@@H](NC(=O)[C@H](N)c3ccccc3)[C@H]2SC1 [Cephalexin, cephalexin]
c = Cc1ccc(-c2cc(C(F)(F)F)nn2-c2ccc(S(N)(=O)=O)cc2)cc1 [Celecoxib, celecoxib]
Req: rank_up(items): orders items by reported Drug concentration, time course in ascending numerical order. Give the labels in the order requested.
Resp: a, c, b
(a: 0, c: 50, b: 80)

* * *

# conditions.used: normal mice, oral gavage, 3mg/kg; Liver; 6h
metric: Drug concentration, time course

1 = CC1(C)S[C@@H]2[C@H](NC(=O)[C@H](N)c3ccc(O)cc3)C(=O)N2[C@H]1C(=O)O
2 = COc1ccc2c(c1)c(CC(=O)O)c(C)n2C(=O)c1ccc(Cl)cc1
Req: Of 1 and 2 , which carries the smaller reported Drug concentration, time course figure? Mark your selection by writing its label.
Resp: 1

A = OC[C@H]1O[C@@H](c2ccc(F)c(Cc3cc4ccccc4s3)c2)[C@H](O)[C@@H](O)[C@@H]1O
B = Cc1ccc([C@@H]2O[C@H](CO)[C@@H](O)[C@H](O)[C@H]2O)cc1Cc1ccc(-c2ccc(F)cc2)s1
Req: Min Drug concentration, time course? A | B # respond with the chosen item's label
Resp: B
(B: 3900, A: 6000)

a = N#C[C@@H]1CCCN1C(=O)CNC12CC3CC(CC(O)(C3)C1)C2
b = CC1=C(C(=O)O)N2C(=O)[C@@H](NC(=O)[C@H](N)c3ccccc3)[C@H]2SC1
Req: Given the listed items, does a or b have the lesser reported Drug concentration, time course? Give the label of your selection.
Resp: a
(a: 4800, b: 7460)

* * *

# System: diabetes mellitus patients
# experiment.notes: Acute kidney injury
# Format: in vivo, human
# conditions.used: Endpoint Diagnosis with 1047 Outcome; multivariate; metformin as reference
Consider the following compounds and their measured Association with AKI, Adjusted (95% CI) readings.

Look over these answered cases.
>>> print(df.to_string())
                         structure_notation                                   metric             value
0  Cc1ccc(-c2cc(C(F)(F)F)nn2-c2ccc(S(N)(=O)=O)cc2)cc1  Association with AKI, Adjusted (95% CI)  2.32 (2.12–2.68)
1                         CN(C)C(=N)N=C(N)N  Association with AKI, Adjusted (95% CI)                 1
2  CC#CCn1c(N2CCC[C@@H](N)C2)nc2c1c(=O)n(Cc1nc(C)c3ccccc3n1)c(=O)n2C  Association with AKI, Adjusted (95% CI)  0.86 (0.72–1.46)

Req: // lookup Association with AKI, Adjusted (95% CI) for Cc1ccc([C@@H]2O[C@H](CO)[C@@H](O)[C@H](O)[C@H]2O)cc1Cc1ccc(-c2ccc(F)cc2)s1
Resp: 1.06 (0.68–1.34)

* * *

# Test system: diabetes mellitus patients
# experiment.notes: Acute kidney injury
# Type: in vivo, human
# conditions.used: Secondary Diagnosis with 3919 Outcomes; multivariate; metformin as reference
metric: Association with AKI, Adjusted (95% CI)

Check out these entries, answers already filled in.
In [3]: df
Out[3]:
                                   compound             subject_of_test             value
0  COc1ccc2c(c1)c(CC(=O)O)c(C)n2C(=O)c1ccc(Cl)cc1  diabetes mellitus patients  2.63 (2.41–2.72)
1  Cc1ccc(-c2cc(C(F)(F)F)nn2-c2ccc(S(N)(=O)=O)cc2)cc1  diabetes mellitus patients  1.86 (1.53–2.77)
2  CC(C)Cc1ccc(C(C)C(=O)O)cc1 (stereo not drawn)  diabetes mellitus patients  2.36 (1.84–2.93)
3  N#C[C@@H]1CCCN1C(=O)CNC12CC3CC(CC(O)(C3)C1)C2  diabetes mellitus patients  1.07 (0.95–1.45)
4  CCOc1ccc(Cc2cc([C@@H]3O[C@H](CO)[C@@H](O)[C@H](O)[C@H]3O)ccc2Cl)cc1  diabetes mellitus patients  0.93 (0.58–1.24)

For the next question, use this compound.
Req: Any idea what Association with AKI, Adjusted (95% CI) came out for Cn1c(=O)cc(N2CCC[C@@H](N)C2)n(Cc2ccccc2C#N)c1=O on diabetes mellitus patients?
Resp: 2.85 (2.26–3.07)

* * *

# conditions.used: normal mice, oral gavage, 3mg/kg; Kidney; 18h
metric: Drug concentration, time course

>>> df
                                   molecule  value
0  Cc1ccc([C@@H]2O[C@H](CO)[C@@H](O)[C@H](O)[C@H]2O)cc1Cc1ccc(-c2ccc(F)cc2)s1 [Canagliflozin, canagliflozin]      0

I = OC[C@H]1O[C@@H](c2ccc(Cl)c(Cc3ccc(O[C@H]4CCOC4)cc3)c2)[C@H](O)[C@@H](O)[C@@H]1O [Jardiance]
II = CC(C)Cc1ccc(C(C)C(=O)O)cc1 (stereo not shown) [Ibuprofen, ibuprofen]
Req: Record comparison, field Drug concentration, time course: mark the lower of I and II . Choose, then provide that item's label.
Resp: I

* * *

# Test system: diabetes mellitus patients
# experiment.notes: Acute kidney injury
# Type: in vivo, human
# conditions.used: Endpoint Diagnosis with 1047 Outcome; metformin as reference
metric: Association with AKI, Unadjusted (95% CI)

Here are 3 compounds together with their reported answers.
                         structure_notation             subject_of_test             value
0  Cc1ccc([C@@H]2O[C@H](CO)[C@@H](O)[C@H](O)[C@H]2O)cc1Cc1ccc(-c2ccc(F)cc2)s1  diabetes mellitus patients  0.85 (0.67–1.21)
1  Cn1c(=O)cc(N2CCC[C@@H](N)C2)n(Cc2ccccc2C#N)c1=O  diabetes mellitus patients  1.83 (1.75–2.16)
2                         CN(C)C(=N)N=C(N)N  diabetes mellitus patients                 1

Let us examine a further case.
Req: Any idea what Association with AKI, Unadjusted (95% CI) was measured for CC1(C)S[C@@H]2[C@H](NC(=O)[C@H](N)c3ccc(O)cc3)C(=O)N2[C@H]1C(=O)O ?
Resp: 1.73 (1.16–1.85)

* * *

# experiment.notes: in vivo
# conditions.used: male, ICR, mouse, po
metric: Tmax (h)

Examples with answers:
                                   compound  quantity_unit  value
0  Cn1c(=O)cc(N2CCC[C@@H](N)C2)n(Cc2ccccc2C#N)c1=O              h      1
1  OC[C@H]1O[C@@H](c2ccc(F)c(Cc3cc4ccccc4s3)c2)[C@H](O)[C@@H](O)[C@@H]1O              h    0.5
2  CC(C)Cc1ccc(C(C)C(=O)O)cc1 (stereo not shown)              h      1

P = OC[C@H]1O[C@@H](c2ccc(Cl)c(Cc3ccc(O[C@H]4CCOC4)cc3)c2)[C@H](O)[C@@H](O)[C@@H]1O
Q = CN(C)C(=N)N=C(N)N
Req: Compare P and Q by numeric Tmax and name the larger one. Mark your selection by writing its label.
Resp: P
(P: 1 h, Q: 0.5 h)

a = N#C[C@@H]1CCCN1C(=O)CNC12CC3CC(CC(O)(C3)C1)C2
b = CCOc1ccc(Cc2cc([C@@H]3O[C@H](CO)[C@@H](O)[C@H](O)[C@H]3O)ccc2Cl)cc1
Req: Could you tell me which of a and b has the lower Tmax reading? Lab log: write the label of the selected item as the result.
Resp: a

1 = CC#CCn1c(N2CCC[C@@H](N)C2)nc2c1c(=O)n(Cc1nc(C)c3ccccc3n1)c(=O)n2C
2 = Cc1ccc(-c2cc(C(F)(F)F)nn2-c2ccc(S(N)(=O)=O)cc2)cc1
Req: Kindly identify the item with the lower Tmax figure among these two: 1 and 2 Please respond with the label that marks your chosen entry.
Resp: 2
(2: 0.5 h, 1: 1 h)
